Where these numbers come from: ChEMBL document CHEMBL1201862

Test system: IGROV-1
Assay: NCI tumour cell line growth inhibition, 48 h
Calls of active or inactive are those of the source. Rule as the data show it: active = GI50 up to about 1.1 µM and inactive = higher.
Outcome codes: active, inactive

{"columns": ["Compound", "Assay system", "Category"],
 "data": [
  ["NNC(=S)N/N=C(\\C(=O)Nc1cccc(O)c1)C1C(=O)NC(=S)NC1=O", "IGROV-1", "inactive"],
  ["CCOC(=O)/C=C1\\Oc2ccccc2C1(C)O (stereo unspecified)", "IGROV-1", "inactive"],
  ["COC(=O)C(/C(=N/N)C(=O)Nc1cc(Cl)ccc1Cl)c1nc2ccc([N+](=O)[O-])cc2nc1O (stereo unspecified)", "IGROV-1", "inactive"],
  ["CCN(N=O)C1C2(CCCC2)NC(=O)C12CCCC2 (stereo unspecified)", "IGROV-1", "inactive"],
  ["CCCNC(=O)Cn1c(C)cc2ccccc21", "IGROV-1", "inactive"],
  ["CCOC(=O)N/N=C(/N)Cc1ccccc1", "IGROV-1", "inactive"],
  ["O=C(c1c(F)c(F)c(F)c(F)c1F)n1c(=S)n(C(=O)c2c(F)c(F)c(F)c(F)c2F)c2ccccc21", "IGROV-1", "inactive"],
  ["CC(=O)N1C2=CCCC2(C)c2ccccc21 (stereo unspecified)", "IGROV-1", "inactive"],
  ["CC1=N/C(=C/c2ccc3c(c2)OCO3)C(=O)O1", "IGROV-1", "inactive"],
  ["CC(C)[Si]1(C(C)C)OCC2OC(n3ccc(=O)[nH]c3=O)C(O)(CO)C2O[Si](C(C)C)(C(C)C)O1 (stereo unspecified)", "IGROV-1", "inactive"],
  ["CN1N=C(c2ccncc2)OC1c1ccc(Cl)cc1Cl (stereo unspecified)", "IGROV-1", "inactive"],
  ["N#Cc1c(N)c(-c2ccc(Cl)cc2)c(F)c2ccccc12", "IGROV-1", "inactive"],
  ["CCCC(=O)OC1C(C2COC(C)(C)O2)OC2OC(C)(C)OC21 (stereo unspecified)", "IGROV-1", "inactive"],
  ["CCn1c(SCC(=O)N/N=C/c2ccccc2)nc2ccccc2c1=O", "IGROV-1", "inactive"],
  ["Oc1cccc2cccnc12", "IGROV-1", "inactive"],
  ["NCCSc1nc2ccccc2c(=O)n1-c1ccccc1", "IGROV-1", "inactive"],
  ["C[C@]1(CO)[C@H]2CC[C@@]34C=C[C@@](CO)(CC[C@H]3[C@]2(C)CC[C@H]1O)C4", "IGROV-1", "inactive"],
  ["COc1ccc2oc(-c3cccnc3)cc(=O)c2c1", "IGROV-1", "inactive"],
  ["CCCn1cnc2c(SCC(=O)O)nc(N)nc21", "IGROV-1", "inactive"],
  ["CCCN(CCCN)/[N+]([O-])=N\\O", "IGROV-1", "inactive"],
  ["O=C1NC(=O)C(CC2CCCCCCCCCCC2=O)C(=O)N1 (stereo unspecified)", "IGROV-1", "inactive"],
  ["CC(=O)C(=CNc1c(C)n(C)n(-c2ccccc2)c1=O)C(C)=O", "IGROV-1", "inactive"],
  ["COC(=O)/C=c1\\s/c(=C\\C(=O)OC)c2ccccc12", "IGROV-1", "inactive"],
  ["O=C(O)c1cccc(C(=O)O)c1[S+]([O-])Cc1ccccc1 (stereo unspecified)", "IGROV-1", "inactive"],
  ["CCCc1[nH]c2ccccc2c1-c1c(CCC)[nH]c2ccccc12", "IGROV-1", "inactive"],
  ["CCOC(=O)/C(=C/c1ccc(N(C)C)cc1)N(CC)CC", "IGROV-1", "inactive"],
  ["CS/C=C\\C(=O)O[C@H]1C[C@@H]2[C@@H](O)c3occ(C)c3C[C@]2(C)[C@@H](C)C1", "IGROV-1", "inactive"],
  ["Oc1ccc2ccccc2c1OCc1nnc(CCCCCCCCc2nnc(COc3c(O)ccc4ccccc34)o2)o1", "IGROV-1", "inactive"],
  ["Cc1c(S(=O)(=O)/N=C(\\NN)Nc2ccc(Cl)cc2)sc2ccc(Cl)cc12", "IGROV-1", "inactive"],
  ["C/C(=N\\Nc1nc2ccccc2s1)c1ncccn1", "IGROV-1", "active"],
  ["BC(=O)NC(CC(C)C)C(=O)NC1c2ccsc2C(=O)C1O.CN(C)C (stereo unspecified)", "IGROV-1", "inactive"],
  ["Clc1ccc(OCc2nnc3sc(SSc4nn5c(COc6ccc(Cl)cc6)nnc5s4)nn23)cc1", "IGROV-1", "inactive"],
  ["CCC(C)C(=O)c1c(O)c(C/C=C(\\C)CCC=C(C)C)c(O)c2c(C(O)CC)cc(=O)oc12 (stereo unspecified)", "IGROV-1", "inactive"],
  ["COP(=O)(CC(=O)C1OC(OCc2ccccc2)C(OCc2ccccc2)C(OCc2ccccc2)C1OCc1ccccc1)OC (stereo unspecified)", "IGROV-1", "inactive"],
  ["Cc1ccc(/C=N/Nc2nc3ccccc3s2)s1", "IGROV-1", "inactive"],
  ["Cn1nc(-c2ccccc2)nc1[N+](=O)[O-]", "IGROV-1", "inactive"]
]}
